Target: CDK9/Cyclin T1 (Homo sapiens (Human), UniProt P50750)
Sequence (P50750 whole entry): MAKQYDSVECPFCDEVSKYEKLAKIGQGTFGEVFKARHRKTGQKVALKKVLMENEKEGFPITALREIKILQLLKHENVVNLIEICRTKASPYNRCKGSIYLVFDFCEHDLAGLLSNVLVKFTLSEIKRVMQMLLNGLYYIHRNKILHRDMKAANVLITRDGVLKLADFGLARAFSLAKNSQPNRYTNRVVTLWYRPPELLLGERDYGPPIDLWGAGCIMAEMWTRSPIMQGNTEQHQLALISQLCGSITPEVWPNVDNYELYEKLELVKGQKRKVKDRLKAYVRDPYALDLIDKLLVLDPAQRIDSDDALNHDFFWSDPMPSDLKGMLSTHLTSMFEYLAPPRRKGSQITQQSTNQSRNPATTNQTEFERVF
Sequence (O60563 whole entry partner): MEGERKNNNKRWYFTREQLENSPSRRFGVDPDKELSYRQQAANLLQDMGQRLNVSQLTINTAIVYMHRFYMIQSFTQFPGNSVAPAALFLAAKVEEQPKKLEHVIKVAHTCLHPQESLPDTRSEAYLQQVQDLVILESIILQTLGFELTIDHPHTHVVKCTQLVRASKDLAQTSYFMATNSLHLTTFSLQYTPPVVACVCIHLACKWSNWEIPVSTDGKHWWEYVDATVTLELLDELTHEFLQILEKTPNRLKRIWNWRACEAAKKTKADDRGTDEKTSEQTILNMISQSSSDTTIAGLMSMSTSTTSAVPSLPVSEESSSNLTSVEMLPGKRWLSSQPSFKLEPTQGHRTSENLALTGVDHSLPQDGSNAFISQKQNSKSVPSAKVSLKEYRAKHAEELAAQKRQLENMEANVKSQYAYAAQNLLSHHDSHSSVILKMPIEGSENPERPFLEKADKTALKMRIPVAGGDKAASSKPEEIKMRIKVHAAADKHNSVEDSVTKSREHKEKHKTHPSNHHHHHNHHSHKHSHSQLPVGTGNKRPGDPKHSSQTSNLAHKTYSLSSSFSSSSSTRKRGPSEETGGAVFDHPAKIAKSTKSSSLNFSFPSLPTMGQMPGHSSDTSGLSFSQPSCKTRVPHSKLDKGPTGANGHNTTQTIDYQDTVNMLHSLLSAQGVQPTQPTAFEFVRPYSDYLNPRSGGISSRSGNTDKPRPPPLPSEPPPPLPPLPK
Assay: CDK9 enzyme assay (LANCE ULight TR-FRET kinase assay)
Conditions: 1000 μM ATP, 100 nM ULight MBP, kinase reaction 1 hour
Property measured: IC50 (nM)
Answers are plain numbers, in nM.

Worked examples, 6 compounds total:
1. CN(C)C(=O)CN1[C@H]2CC[C@@H]1C=C(c1[nH]c3nccc4c3c1CN(C)c1ccc(F)cc1-4)C2 [Example 55]    160
2. CN1Cc2c(C3=CCC(N[C@H](C(=O)O)C(C)(C)C)CC3)[nH]c3nccc(c23)-c2cc(F)ccc21 (stereo partly shown) [Example 36]    64
3. CN1Cc2c(C3CCN(CC(=O)OC(C)(C)C)CC3)[nH]c3nccc(c23)-c2cc(F)ccc21 [Example 22]    2800
4. CC[C@H]1c2c(C3=CCN(CC(=O)N(C)C)CC3)[nH]c3nccc(c23)-c2cc(F)ccc2N1C [Example 168]    60
5. CN(C)C(=O)CN1CC=C(c2[nH]c3ncc(F)c4c3c2CN(C)c2ccc(F)cc2-4)CC1 [Example 66]    44
6. CN(CC(O)CO)C(=O)CN1CCC=C(c2[nH]c3nccc4c3c2CN(C)c2ccc(F)cc2-4)C1 (stereo not shown) [Example 123]    540

# input for lookup
Enquiry: Consider the compound CN1Cc2c(C3=C[C@H](CO)NCC3)[nH]c3nccc(c23)-c2cc(F)ccc21 [Example 154] and give its recorded IC50.
Return: 28

###

What pIC50 was measured for each of the following?
Biological target: CDK9/Cyclin T1 (Homo sapiens (Human))
Experiment: CDK9 enzyme assay (LANCE ULight TR-FRET kinase assay)
Settings: 1000 μM ATP, 100 nM ULight MBP, kinase reaction 1 hour
One number for each entry, as −log10 of the molar value.

Worked examples, 10 compounds total:
1. CN1Cc2c(C3=CCNCC3)[nH]c3nccc(c23)-c2cc(F)c(F)cc21 [Example 144]    7.54
2. CC(C)[C@@H](NC1CC=C(c2[nH]c3nccc4c3c2CN(C)c2ccc(F)cc2-4)CC1)C(=O)O (stereo partly shown) [Example 29]    7.34
3. CN1CCc2c(C3=CCN(S(C)(=O)=O)CC3)[nH]c3nccc(c23)-c2cc(F)ccc21 [Example 128]    7.11
4. CN1Cc2c(C3=CCN(S(C)(=O)=O)CC3)[nH]c3nccc(c23)-c2ccccc21 [Example 160]    7.07
5. CN1Cc2c(C3=CCCN(CC(=O)N4CC(O)C4)CC3)[nH]c3nccc(c23)-c2cc(F)ccc21 [Example 91]    6.74
6. CN1Cc2c(C3=CCN(C4CC(CC(=O)O)C4)CC3)[nH]c3ncc(F)c(c23)-c2cc(F)ccc21 (stereo not shown) [Example 192]    7.10
7. CCC[C@H](NC1CC=C(c2[nH]c3nccc4c3c2CN(C)c2ccc(F)cc2-4)CC1)C(=O)O (stereo partly shown) [Example 39]    6.89
8. CN1Cc2c(C3=CCCN(CC(=O)N4CC(O)C4)C3)[nH]c3nccc(c23)-c2cc(F)ccc21 [Example 121]    6.80
9. CN(CC(O)CO)C(=O)CN1CC=C(c2[nH]c3nccc4c3c2CN(C)c2ccc(F)cc2-4)C(C)(C)C1 (stereo not shown) [Example 119]    5.89
10. CN1Cc2c(C3=C[C@H]4CC[C@@H](C3)N4CC(=O)N(C)C3CC(O)C3)[nH]c3nccc(c23)-c2cc(F)ccc21 (stereo partly shown) [Example 98]    7.14

Batch request: pIC50 per item, same order as input.
1. CN1Cc2c(C3=CCN(CC(=O)O)CC3)[nH]c3nccc(c23)-c2cc(F)c(F)cc21 [Example 145]
2. CN(C)C(=O)C1CC=C(c2[nH]c3nccc4c3c2CN(C)c2ccc(F)cc2-4)CC1 (stereo not shown) [Example 50]
3. CN1Cc2c(C3=CCN(CC(=O)N4CCC[C@H]4CO)CC3(C)C)[nH]c3nccc(c23)-c2cc(F)ccc21 [Example 115]

Return:
7.38
6.92
6.02

Batch request: pIC50 per item, same order as input.
1. CN1Cc2c(C3=CCN([C@H]4CC[C@H](C(=O)O)CC4)CC3)[nH]c3nccc(c23)-c2ccccc21 [Example 171]
2. CN1Cc2c(C3=CCN([C@H]4CC[C@@H](C(=O)O)CC4)CC3)[nH]c3ncc(F)c(c23)-c2ccccc21 [Example 183]
3. CN(C)C(=O)CN1CCC=C(c2[nH]c3nccc4c3c2CN(C)c2ccc(F)cc2-4)CC1 [Example 88]
4. CN1Cc2c(C3=CCCN(CC(=O)O)CC3)[nH]c3nccc(c23)-c2cc(F)ccc21 [Example 90]
5. CN1Cc2c(C3=CCN(CCS(=O)(=O)N(C)C)CC3)[nH]c3nccc(c23)-c2cc(F)ccc21 [Example 178]
6. CCCN1Cc2c(C3=CCN(S(C)(=O)=O)CC3)[nH]c3nccc(c23)-c2cc(F)ccc21 [Example 6]
7. CN1Cc2c(C3=CCN(CC(=O)N4CCC[C@@H]4CO)CC3)[nH]c3ncc(F)c(c23)-c2cc(F)ccc21 [Example 75]
8. CN1Cc2c(C3CCNCC3)[nH]c3nccc(c23)-c2cc(F)ccc21 [Example 21]

Return:
6.82
7.10
6.82
6.77
7.60
6.47
7.29
6.40

Values compiled from patent US9328112B2.
